Entry source: ChEMBL document CHEMBL3612020

# protocol summary: Tmax in CD1 mouse at 30 mg/kg, po
# Assay type: ADME, organism-based
# experimental parameters: in vivo
endpoint label: Tmax (min)

a = O=c1[nH]nc(CCc2cc(F)cc(F)c2)cc1O
b = O=c1[nH]c(=O)n(Cc2cccc3ccccc23)nc1O
Higher Tmax between a and b ? Bench note: the answer is the label of the chosen record.
a
(a: 15 min, b: 4.8 min)

* * *

# protocol summary: Volume of distribution in CD1 mouse at 30 mg/kg, iv
# Format: ADME, organism-based
# experimental parameters: in vivo
endpoint label: Vd (L/kg)
Express your answer in L/kg, writing the number without its unit.

# lookup: Vd of O=c1[nH]c(=O)n(Cc2cccc3ccccc23)nc1O
0.8

* * *

# protocol summary: Terminal half life in CD1 mouse at 30 mg/kg, iv
# Format: ADME, organism-based
# experimental parameters: in vivo, read-out: beta t1/2 (converted)
endpoint label: half-life (min)
Express your answer in min, writing the number without its unit.

# lookup: half-life of O=c1[nH]c(=O)n(Cc2cccc3ccccc23)nc1O
54

* * *

# target of assay: MAO-A (Homo sapiens, UniProt P21397)
# Sequence (P21397 whole entry): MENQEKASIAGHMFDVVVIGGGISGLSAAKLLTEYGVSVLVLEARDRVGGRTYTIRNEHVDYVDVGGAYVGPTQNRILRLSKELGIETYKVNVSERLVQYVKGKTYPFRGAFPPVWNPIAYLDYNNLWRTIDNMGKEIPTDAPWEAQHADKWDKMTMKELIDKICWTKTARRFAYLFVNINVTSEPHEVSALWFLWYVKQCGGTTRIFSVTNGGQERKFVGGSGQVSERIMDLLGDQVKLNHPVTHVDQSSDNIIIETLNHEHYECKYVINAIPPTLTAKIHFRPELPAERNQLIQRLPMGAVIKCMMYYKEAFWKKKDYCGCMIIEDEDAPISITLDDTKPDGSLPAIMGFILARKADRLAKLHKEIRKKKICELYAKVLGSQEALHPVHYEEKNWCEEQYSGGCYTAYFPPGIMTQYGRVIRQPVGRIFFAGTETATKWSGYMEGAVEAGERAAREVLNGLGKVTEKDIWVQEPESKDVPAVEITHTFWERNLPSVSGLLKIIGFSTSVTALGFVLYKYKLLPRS
# protocol summary: Inhibition of MAO-A (unknown origin) at 10 uM relative to control
endpoint label: inhibition at 10 µM

# lookup: inhibition at 10 µM of O=c1[nH]c(=O)n(Cc2cccc3ccccc23)nc1O
≤ 5%

* * *

# protocol summary: Metabolic stability in mouse liver microsomes assessed as compound remaining at 5 uM after 60 mins by LC/MS/MS analysis in presence of UDPGA
# Format: ADME
# experimental parameters: 1 h
endpoint label: Stability

| smi | Stability |
| --- | --- |
| O=c1[nH]c(=O)n(CCc2ccccc2)nc1O | >= 99% |
| O=c1[nH]c(=O)n(Cc2cccc3ccccc23)nc1O | >= 99% |
| O=c1[nH]c(=S)n(CCc2ccccc2)nc1O | >= 99% |
| O=c1cc(CSc2ccc(Cl)c(Cl)c2)occ1O | 5% |

Now for the compound whose Stability we want.
# lookup: Stability of O=c1[nH]c(=O)n(CCc2ccccc2)cc1O
<= 1%

* * *

# protocol summary: Cmax in CD1 mouse at 30 mg/kg, po
# Type: ADME, organism-based
# Design: dose 30 mg/kg, route oral
# experimental parameters: in vivo
endpoint label: Cmax (ng/mL)

1 = O=c1[nH]nc(CCc2cc(F)cc(F)c2)cc1O
2 = O=c1[nH]c(=O)n(Cc2cccc3ccccc23)nc1O
Higher Cmax between 1 and 2 ? Bench note: the answer is the label of the chosen record.
2

* * *

# target of assay: MAO-B (Homo sapiens)
# Sequence (P27338 whole entry): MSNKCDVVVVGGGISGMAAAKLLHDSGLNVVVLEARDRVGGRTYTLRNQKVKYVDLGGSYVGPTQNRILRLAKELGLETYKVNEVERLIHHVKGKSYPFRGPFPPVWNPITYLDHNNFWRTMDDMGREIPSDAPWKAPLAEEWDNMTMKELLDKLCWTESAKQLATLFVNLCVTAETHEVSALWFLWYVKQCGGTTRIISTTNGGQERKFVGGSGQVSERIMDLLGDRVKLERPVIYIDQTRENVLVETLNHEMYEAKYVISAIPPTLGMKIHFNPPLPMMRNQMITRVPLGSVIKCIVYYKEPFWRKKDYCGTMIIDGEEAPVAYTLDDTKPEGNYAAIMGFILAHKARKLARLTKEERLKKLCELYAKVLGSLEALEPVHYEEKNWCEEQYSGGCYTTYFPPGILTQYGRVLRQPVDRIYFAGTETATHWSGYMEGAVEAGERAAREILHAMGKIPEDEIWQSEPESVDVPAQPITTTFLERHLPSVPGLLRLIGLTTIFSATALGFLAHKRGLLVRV
# protocol summary: Inhibition of MAO-B (unknown origin) at 10 uM relative to control
endpoint label: inhibition at 10 µM

# lookup: inhibition at 10 µM of O=c1[nH]c(=O)n(Cc2cccc3ccccc23)nc1O
≤ 5%

* * *

# target of assay: D-amino-acid oxidase (Homo sapiens, UniProt P14920)
# Sequence (P14920 whole entry): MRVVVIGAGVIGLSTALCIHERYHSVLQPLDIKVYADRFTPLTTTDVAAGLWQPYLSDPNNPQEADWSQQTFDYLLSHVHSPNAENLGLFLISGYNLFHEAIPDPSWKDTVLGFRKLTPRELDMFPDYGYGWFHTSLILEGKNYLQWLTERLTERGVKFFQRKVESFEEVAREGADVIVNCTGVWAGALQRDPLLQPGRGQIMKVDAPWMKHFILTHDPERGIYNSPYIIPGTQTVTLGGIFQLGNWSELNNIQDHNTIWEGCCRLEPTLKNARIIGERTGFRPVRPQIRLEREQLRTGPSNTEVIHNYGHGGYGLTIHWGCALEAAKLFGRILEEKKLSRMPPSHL
# protocol summary: Inhibition of recombinant human DAAO expressed in HEK cells using D-serine as substrate assessed as formation of alpha-keto acid, ammonia, […] after 20 mins by horseradish peroxidase/o-phenylenediamine-based assay
# Set-up: species or system HEK293
pIC50: −log10 of the molar value.
endpoint label: pIC50

| molecule | pIC50 |
| --- | --- |
| Cc1ccccc1CCn1nc(O)c(=O)[nH]c1=O | 7.10 |
| O=c1[nH]c(=O)n(CCc2cccc(Oc3ccccc3)c2)nc1O | 6.62 |
| COc1ccc(CCn2nc(O)c(=O)[nH]c2=O)cc1 | 6.92 |
| O=C(Cn1nc(O)c(=O)[nH]c1=O)c1ccccc1 | 6.07 |
| O=c1[nH]c(=O)n(CCc2ccc(Oc3ccccc3)cc2)nc1O | 7.10 |
| O=c1[nH]c(=O)n(CCCc2ccccc2)nc1O | 5.77 |
| O=c1[nH]c(=O)n(CCc2cccc(O)c2)nc1O | 6.80 |
| O=c1[nH]c(=O)n(CCc2ccc(-c3ccccc3)cc2)nc1O | 7.30 |

P = O=c1[nH]c(=O)n(CCc2ccccc2)cc1O
Q = O=c1[nH]c(=O)n(CCn2cccn2)nc1O
R = CC(Cn1nc(O)c(=O)[nH]c1=O)c1ccccc1 (stereo unspecified)
Ordering criterion: pIC50; begin with the maximum. In your reply, arrange the labels in the requested order.
P, Q, R

I = O=c1[nH]c(=O)n(CCc2cccc(C(F)(F)F)c2)nc1O
II = O=c1[nH]c(=O)n(CC(O)c2ccccc2)nc1O (stereo unspecified)
III = COc1ccccc1CCn1nc(O)c(=O)[nH]c1=O
IV = O=c1[nH]c(=O)n(CCc2ccccn2)nc1O
V = O=c1[nH]c(=O)n(CCc2ccc(Cl)cc2)nc1O
With regard to pIC50, arrange the entries in ascending order, please. In your reply, arrange the labels in the requested order.
IV, II, III, I, V
